# target.or.system: Calcitonin-gene-related peptide receptor, CALCRL/RAMP1 (Homo sapiens, UniProt O60894+Q16602)
# Sequence (O60894 whole entry): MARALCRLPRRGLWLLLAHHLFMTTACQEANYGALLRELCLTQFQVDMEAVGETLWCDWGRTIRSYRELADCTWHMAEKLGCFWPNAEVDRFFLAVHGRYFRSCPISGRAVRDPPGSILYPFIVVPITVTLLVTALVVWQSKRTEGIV
# Sequence (Q16602 whole entry): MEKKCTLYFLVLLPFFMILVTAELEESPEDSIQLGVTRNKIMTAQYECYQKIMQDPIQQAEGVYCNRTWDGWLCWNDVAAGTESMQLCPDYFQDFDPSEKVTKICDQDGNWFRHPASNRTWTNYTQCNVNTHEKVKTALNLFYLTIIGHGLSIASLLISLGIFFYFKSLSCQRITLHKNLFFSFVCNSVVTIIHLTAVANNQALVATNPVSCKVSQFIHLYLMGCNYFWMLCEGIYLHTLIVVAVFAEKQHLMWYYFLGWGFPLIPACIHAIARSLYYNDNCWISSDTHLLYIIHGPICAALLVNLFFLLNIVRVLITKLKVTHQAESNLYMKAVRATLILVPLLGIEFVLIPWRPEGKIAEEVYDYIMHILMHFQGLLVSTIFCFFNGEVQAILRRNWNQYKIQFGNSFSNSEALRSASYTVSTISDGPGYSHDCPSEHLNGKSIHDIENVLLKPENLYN
# assay.notes: Displacement of [3H-propionyl-K24] from halphaCGRP expressed in human neuroblastoma SK-N-MC cells
# Type: cell-based
pKi: −log10 of the molar value. *1 amine or outer side, *2 acyl side, *3 side chain or, on linkers, in order; H or OH if unused. Where a SMILES comes first, the peptide text is derived from it. [ ]: non-standard residue; d: D form. X2 = COC(=O)[C@@H]1[C@@H](N[*:1])[C@H]1C(=O)[*:2]; X1 = COC(=O)[C@H]1[C@H](N[*:1])[C@@H]1C(=O)[*:2]
endpoint: pKi

# annotated cases, reported pKi shown
[
  {
    "compound": "CC(C)[C@H](NC(=O)[C@H](CC(=O)O)NC(=O)[C@@H](NC(=O)C(C)(C)NC(=O)[C@@H](NC(=O)[C@@H](N)Cc1ccccc1)C(C)C)[C@@H](C)O)C(=O)NCC(=O)N1CCC[C@H]1C(=O)N[C@@H](Cc1ccccc1)C(=O)N[C@@H](C)C(=O)N[C@@H](Cc1ccccc1)C(=O)O",
    "endpoint": "pKi",
    "measured": 11.70
  },
  {
    "compound": "COC(=O)[C@@H]1[C@@H](NC(=O)CNC(=O)[C@@H](NC(=O)[C@H](CC(N)=O)NC(=O)[C@@H](NC(=O)[C@@H]2CCCN2C(=O)[C@@H](NC(=O)[C@@H](N)Cc2ccccc2)C(C)C)[C@@H](C)O)C(C)C)[C@H]1C(=O)N[C@@H](Cc1ccccc1)C(=O)N[C@@H](C)C(=O)N[C@@H](Cc1ccccc1)C(=O)O (H-FVPTNVG[X2]FAF-OH)",
    "endpoint": "pKi",
    "measured": "< 5.00"
  }
]

**Q:** Entry under review: COC(=O)[C@H]1[C@H](NC(=O)CNC(=O)[C@@H](NC(=O)[C@H](CC(=O)O)NC(=O)[C@@H](NC(=O)[C@@H]2CCCN2C(=O)[C@@H](NC(=O)[C@@H](N)Cc2ccccc2)C(C)C)[C@@H](C)O)C(C)C)[C@@H]1C(=O)N[C@@H](Cc1ccccc1)C(=O)N[C@@H](C)C(=O)N[C@@H](Cc1ccccc1)C(=O)O (H-FVPTDVG[X1]FAF-OH) . Reported pKi?
**A:** < 5.00

**Q:** Consider the compound COC(=O)[C@H]1[C@H](NC(=O)CNC(=O)[C@@H](NC(=O)[C@H](CC(N)=O)NC(=O)[C@@H](NC(=O)[C@@H]2CCCN2C(=O)[C@@H](NC(=O)[C@@H](N)Cc2ccccc2)C(C)C)[C@@H](C)O)C(C)C)[C@@H]1C(=O)N[C@@H](Cc1ccccc1)C(=O)N[C@@H](C)C(=O)N[C@@H](Cc1ccccc1)C(=O)O (H-FVPTNVG[X1]FAF-OH) and give its measured pKi.
**A:** < 5.00

**Q:** Reported pKi, compound "CC(C)[C@H](NC(=O)[C@H](CC(=O)O)NC(=O)[C@@H](NC(=O)[C@@H]1CCCCN1C(=O)[C@@H](NC(=O)[C@@H](N)Cc1ccccc1)C(C)C)[C@@H](C)O)C(=O)NCC(=O)N1CCC[C@H]1C(=O)N[C@@H](Cc1ccccc1)C(=O)N[C@@H](C)C(=O)N[C@@H](Cc1ccccc1)C(=O)O" : ____
**A:** < 5.00

* * *

# target.or.system: Calcitonin-gene-related peptide receptor, CALCRL/RAMP1 (Homo sapiens, UniProt O60894+Q16602)
# assay.notes: Displacement of [3H-propionyl-K24] from halphaCGRP expressed in human neuroblastoma SK-N-MC cells
# Assay type: cell-based
pKi: −log10 of the molar value.
endpoint: pKi

[1] H-FVATDVGPFAF-OH
[2] H-FVPTDVGAFAF-OH
**Q:** Please choose the item with the lower pKi value from this pair: 1 and 2 State the label of the item chosen.
**A:** 2

All values here come from ChEMBL document CHEMBL1147739.
